- assay_protocol: NCI Yeast Anticancer Drug Screen. Data for the bub3 strain (AID 167)
- condition: S. cerevisiae bub3 mutant strain, at 50.0 µM (retest, dose inferred, filed as 5.0)
Compounds without any hit were thinned out: in the full panel of roughly 79,000, 15% have a hit. The source made the active and inactive calls. No stated cut-off is given here; in the data, active means growth inhibition above about 70%; inactive means the rest.
Respond only with the outcome that fits, drawn from True = active, False = inactive

The examples below pair each entry with its known result.
[
  {
    "molecule": "C/C(=N/NC(=O)C[n+]1ccccc1)C(CN(CC(C)C)CC(C)C)C(=O)Nc1ccc(C)cc1C (stereo not drawn)",
    "classification": "False"
  },
  {
    "molecule": "O=C1C=CC(=O)N1C12CC3CC(CC(C3)C1)C2",
    "classification": "True"
  }
]

Now take the following molecule into account.
[Q] Answer briefly: the call reported for "CC(=O)NS(=O)(=O)c1ccc(N=Cc2cc(Cl)cc(Cl)c2O)cc1" in this assay.
[A] True
